# measured-on: SfurOBP11 (Sogatella furcifera, UniProt V5T6E3)
# Sequence (V5T6E3 entry or part of it): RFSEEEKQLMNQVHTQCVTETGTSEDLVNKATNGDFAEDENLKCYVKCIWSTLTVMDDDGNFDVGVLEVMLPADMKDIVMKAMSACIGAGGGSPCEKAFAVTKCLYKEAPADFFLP
# method-description: biochemical
# Assay type: binding
# details: ligand concentration 4, replicate 1
I'd be grateful if you could share measured Fluorescence intensity, fluorescence competitive binding assay, OBP11 for these entries.
Give bare numbers.

{"columns": ["compound", "quantitative-readout"],
 "data": [
  ["CCCCCCCCCCC", 29413],
  ["CC/C=C\\CCO [(Z)-3-hexenol]", 21959],
  ["C=C1CC/C=C(\\C)CC[C@@H]2[C@@H]1CC2(C)C", 23122],
  ["C/C(=C\\CO)CCC[C@H](C)CCC[C@H](C)CCCC(C)C", 17687],
  ["C=C/C(C)=C/C/C=C(\\C)CCC=C(C)C", 32002]
]}

Field: Fluorescence intensity, fluorescence competitive binding assay, OBP11. Fill in for each record below.
1. C[C@@H]1CC[C@H]2C(C)(C)[C@H]3C[C@@]12CC[C@@]3(C)O
2. CC(=O)/C=C/C1=C(C)CCCC1(C)C
3. O=Cc1ccccc1

*A*
1: 30812; 2: 28634; 3: 25103

*Q* Find the recorded Fluorescence intensity, fluorescence competitive binding assay, OBP11 belonging to CC1=CC[C@@H](C(C)(C)O)CC1 and report it.
*A* 28869
